Molecular target: VEGFR-2 (KDR) (Homo sapiens)
Construct: purchased Cat. #40325
Sequence (P35968 20-1356): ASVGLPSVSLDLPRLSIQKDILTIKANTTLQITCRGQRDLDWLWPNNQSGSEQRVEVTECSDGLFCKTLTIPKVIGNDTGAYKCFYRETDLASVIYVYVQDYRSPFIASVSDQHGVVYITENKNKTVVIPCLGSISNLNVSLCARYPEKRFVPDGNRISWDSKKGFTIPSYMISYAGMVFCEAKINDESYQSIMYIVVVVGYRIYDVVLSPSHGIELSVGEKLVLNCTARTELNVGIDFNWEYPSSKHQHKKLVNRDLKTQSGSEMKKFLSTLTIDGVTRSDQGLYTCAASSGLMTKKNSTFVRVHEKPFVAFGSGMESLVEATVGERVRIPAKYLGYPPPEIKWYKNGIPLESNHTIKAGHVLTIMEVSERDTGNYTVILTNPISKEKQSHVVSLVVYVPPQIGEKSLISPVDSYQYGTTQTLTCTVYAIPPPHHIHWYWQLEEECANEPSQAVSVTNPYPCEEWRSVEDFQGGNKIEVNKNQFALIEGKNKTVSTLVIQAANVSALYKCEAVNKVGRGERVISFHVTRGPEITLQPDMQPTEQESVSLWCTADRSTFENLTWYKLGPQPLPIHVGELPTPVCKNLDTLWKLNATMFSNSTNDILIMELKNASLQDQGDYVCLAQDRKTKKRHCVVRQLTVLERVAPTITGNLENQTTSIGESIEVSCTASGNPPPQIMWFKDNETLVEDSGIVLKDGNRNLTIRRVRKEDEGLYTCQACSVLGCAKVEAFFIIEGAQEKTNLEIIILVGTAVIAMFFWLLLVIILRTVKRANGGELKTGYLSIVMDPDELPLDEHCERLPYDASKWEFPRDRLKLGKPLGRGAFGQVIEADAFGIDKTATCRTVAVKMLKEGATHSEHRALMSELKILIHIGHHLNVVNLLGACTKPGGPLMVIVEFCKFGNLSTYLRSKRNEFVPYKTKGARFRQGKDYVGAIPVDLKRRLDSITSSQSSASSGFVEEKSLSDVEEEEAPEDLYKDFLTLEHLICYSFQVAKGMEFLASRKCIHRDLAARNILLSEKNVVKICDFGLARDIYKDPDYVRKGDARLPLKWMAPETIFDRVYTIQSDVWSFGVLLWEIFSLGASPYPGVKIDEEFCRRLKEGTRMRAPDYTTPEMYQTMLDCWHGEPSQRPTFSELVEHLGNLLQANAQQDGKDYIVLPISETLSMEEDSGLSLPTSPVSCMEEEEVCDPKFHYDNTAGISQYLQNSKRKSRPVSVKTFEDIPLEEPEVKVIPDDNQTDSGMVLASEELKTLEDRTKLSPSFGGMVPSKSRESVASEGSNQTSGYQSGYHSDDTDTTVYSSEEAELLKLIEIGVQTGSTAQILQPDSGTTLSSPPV
Test: In vitro inhibition of VEGFR-2 (KDR) kinase assay kit
Type: biochemical
Settings: luminescence kinase kit, 0.0–10.0 μM range; read-out: IC50 nM, VEGFR-2 enzyme
measurement_type: IC50 (nM)

Illustrative cases are given below, each with its answer.
INSERT INTO measurements (input_smiles, experimental_value) VALUES
  ('CCn1c(SCCCN2C(=O)c3ccccc3C2=O)nc2cc3ccccc3cc2c1=O', 44.4),
  ('CCn1c(SCCN2CCCCC2)nc2cc3ccccc3cc2c1=O', 63);

[A] CCn1c(SCc2cccc(OC)c2)nc2cc3ccccc3cc2c1=O
[B] CCn1c(SCc2ccccc2)nc2cc3ccccc3cc2c1=O
Req: Which entry shows the lesser value of IC50 here, A or B ? // respond with label for picked entry
Resp: A
(A: 46.6 nM, B: 134 nM)
